Listed compounds paired with reported IC50
# experimental.system: human kinase Mps-1 (Homo sapiens)
# Construct: N-terminally GST-tagged human full length recombinant Mps-1 kinase; GST (N)
# Sequence (P33981 whole entry): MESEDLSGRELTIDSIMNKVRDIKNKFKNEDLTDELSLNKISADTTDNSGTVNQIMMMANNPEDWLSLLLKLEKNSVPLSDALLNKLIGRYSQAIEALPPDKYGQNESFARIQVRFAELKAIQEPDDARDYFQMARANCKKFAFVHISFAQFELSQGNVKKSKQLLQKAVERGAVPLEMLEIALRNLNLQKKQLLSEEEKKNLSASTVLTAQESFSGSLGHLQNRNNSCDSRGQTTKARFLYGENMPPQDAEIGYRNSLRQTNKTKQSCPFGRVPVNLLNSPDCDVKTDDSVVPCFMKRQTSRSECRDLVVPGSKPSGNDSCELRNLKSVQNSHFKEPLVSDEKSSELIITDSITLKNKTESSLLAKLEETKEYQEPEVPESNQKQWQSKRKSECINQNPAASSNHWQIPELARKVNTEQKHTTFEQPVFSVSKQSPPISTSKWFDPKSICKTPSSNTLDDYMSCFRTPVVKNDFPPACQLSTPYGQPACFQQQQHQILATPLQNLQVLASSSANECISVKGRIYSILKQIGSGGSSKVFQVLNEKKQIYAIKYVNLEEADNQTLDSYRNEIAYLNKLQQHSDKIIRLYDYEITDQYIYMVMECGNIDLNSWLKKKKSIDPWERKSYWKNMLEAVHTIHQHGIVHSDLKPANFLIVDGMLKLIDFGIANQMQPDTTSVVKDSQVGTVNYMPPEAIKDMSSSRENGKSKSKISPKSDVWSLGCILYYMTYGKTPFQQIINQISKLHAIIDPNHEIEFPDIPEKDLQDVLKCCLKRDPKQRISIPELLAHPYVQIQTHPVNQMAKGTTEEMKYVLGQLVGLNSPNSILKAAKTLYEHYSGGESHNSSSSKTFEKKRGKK
# experimental.protocol: Mps-1 kinase assay (TR-FRET)
# test.conditions: Mps-1 TR-FRET kinase assay; avg; read-out: Mps1 avg (IC50 [mol/l])
measurement.label: IC50

# compound, experimental.system, measurement.label, result
data = [
    ("Cc1nsc(Nc2cnc(C(F)(F)F)cn2)c1C(=O)Nc1ccc(OCCN(C)CC(F)(F)F)nc1 [Example 350]", "human kinase Mps-1 (Homo sapiens)", "IC50", "≥ 20 µM"),
    ("Cc1nsc(Nc2cncc(C(F)(F)F)n2)c1C(=O)Nc1ccc(OC2CCN(CC(F)F)CC2)c(F)c1 [Example 224]", "human kinase Mps-1 (Homo sapiens)", "IC50", "> 20 µM"),
    ("Cc1nsc(Nc2cnc(C(F)(F)F)cn2)c1C(=O)Nc1ccc(F)c(OCCCNC(=O)C(F)(F)F)c1 [Example 427]", "human kinase Mps-1 (Homo sapiens)", "IC50", "≥ 20 µM"),
    ("CCN1CC[C@H](Oc2ccc(NC(=O)c3c(C)nsc3Nc3cnc(C(F)(F)F)cn3)cn2)[C@@H](F)C1 [Example 365]", "human kinase Mps-1 (Homo sapiens)", "IC50", "> 20 µM"),
    ("Cc1nsc(Nc2cnc3ccccc3n2)c1C(=O)Nc1ccc(NC2CCN(C(=O)OC(C)(C)C)CC2)nc1 [Example 234]", "human kinase Mps-1 (Homo sapiens)", "IC50", "> 20 µM"),
    ("Cc1nsc(Nc2cnc(C(F)(F)F)cn2)c1C(=O)Nc1ccc(OC2CCCN(CC(F)F)C2)nc1 (centres unmarked) [Example 330]", "human kinase Mps-1 (Homo sapiens)", "IC50", "≥ 20 µM"),
    ("Cc1nsc(Nc2ccc(C#N)cn2)c1C(=O)Nc1cccc(C(=O)NC(C)C)c1 [Example 255]", "human kinase Mps-1 (Homo sapiens)", "IC50", "> 20 µM"),
    ("Cc1nsc(Nc2cnc3ccccc3n2)c1C(=O)Nc1cccc(NS(=O)(=O)C2CCCN(C(=O)OCc3ccccc3)C2)c1 (centres unmarked) [Example 291]", "human kinase Mps-1 (Homo sapiens)", "IC50", "> 20 µM"),
]
